# Read-out: ABC Transporter (ABCC3), ABCC3 (gene 8714)
# assay_protocol: LTEA_HepaRG_ABCC3: Life Technologies and Expression Analysis (LTEA) Assay for ABC Transporter (ABCC3) using HepaRG (AID 2283462)
# condition_context: mRNA level, 48 h; actives raise or lower the signal
The source made the active and inactive calls. The calls were made as follows: active = hit-call score of the fitted dose curve at least 0.9, where 1 is the maximum; inactive = score below 0.9.
Answer with one of the outcomes T (active), F (inactive)

Example entries begin here.
Cc1ccc(S(=O)(=O)NC(=O)NN2CCCCCC2)cc1
F
O=c1[nH]cnc2c1ncn2[C@H]1CC[C@@H](CO)O1
F
CCCCCCCC/C=C\CCCCCCCC(=O)OC[C@@H](O)[C@H]1OC[C@H](O)[C@H]1O
F
c1ccc2cc3ccccc3cc2c1
F
C[C@@H](Oc1ccc(CNC(=O)c2cccnc2Oc2ccc3c(c2)OCO3)c(F)c1)C(=O)O
F
CCn1nc(C)c2c1C(=O)NCC(c1ccc(O)cc1)=N2
F
OC[C@H]1O[C@@](CO)(O[C@H]2O[C@H](CO)[C@@H](O)[C@H](O)[C@H]2O)[C@@H](O)[C@@H]1O
F
CCCCCCOC(=O)CC(CC(=O)OCCCCCC)(OC(=O)CCC)C(=O)OCCCCCC
F

Challenge: Which outcome was entered for the compound "COS(C)(=O)=O" in this test?
Response given: F

Challenge: Which outcome was entered for the compound "CCCCCCCCCC" in this test?
Response given: F

Challenge: Which outcome was entered for the compound "c1ccc2c(c1)-c1cccc3c1c-2cc1ccccc13" in this test?
Response given: T

====

# assay_protocol: ATG_E_Box_CIS: Attagene CIS-FACTORIAL HepG2 Assay for human Enhancer Box (E-box) (AID 2282936)
# condition_context: HepG2 E-box cis-reporter transcription, actives raise or lower the signal
Calls of active or inactive are those of the source. How the source made its calls: active means hit-call score of the fitted dose curve at least 0.9, where 1 is the maximum; inactive means score below 0.9.
Answer with one of the outcomes 1 (active), 0 (inactive)

Example entries begin here.
O=S(=O)(O)c1ccc(N=Nc2c(O)ccc3cc(S(=O)(=O)O)ccc23)cc1
0
OCCOCCOCCO
0
CCCCCCCCCCCCCCO
1
NC(=O)N1c2ccccc2C=Cc2ccccc21
0
Cn1cc[nH]c1=S
0
Cn1c(=O)c2[nH]cnc2n(C)c1=O
0
CCCCCCCCCCCCCCCCOS(=O)(=O)O
1
C=CCc1cc(S(=O)(=O)c2ccc(O)c(CC=C)c2)ccc1O
1

Challenge: Which outcome was entered for the compound "FC(F)(F)C(F)(F)C(F)(F)C(F)(F)C(F)(F)C(F)(F)I" in this test?
Response given: 0

Challenge: Which outcome was entered for the compound CC(C)CC(C)O (configuration not stated) in this test?
Response given: 0

Challenge: Which outcome was entered for the compound "CC[C@H](C)C(=O)O[C@H]1C[C@H](O)C=C2C=C[C@H](C)[C@H](CC[C@@H](O)C[C@@H](O)CC(=O)O)[C@H]21" in this test?
Response given: 0

====

# assay_protocol: Tanguay_ZF_120hpf_MORT_legacy: (Legacy) Oregon State University Tanguay Lab 120 Hour Post-fertilization zebrafish Assay for Mortality (AID 2283633)
# Procedure: Tanguay_ZF_120hpf_legacy is a whole embryo, multiplexed endpoint assay using zebrafish larvae exposed for 120 hours post fertilization on a 96-well plate.Tanguay_ZF_120hpf_MORT_legacy is one of one assay component(s) measured or calculated from the Tanguay_ZF_120hpf_legacy assay. […] This assay endpoint, Tanguay_ZF_120hpf_MORT_legacy, was analyzed in the positive analysis fitting direction relative to DMSO as the negative control and baseline of activity. […]
The source made the active and inactive calls. Rule for the calls: active = hit-call score of the fitted dose curve at least 0.9, where 1 is the maximum; inconclusive = response in the unintended direction; inactive = score below 0.9.
Answer with one of the outcomes y (active), n (inactive)

Example entries begin here.
CCCCCOC(C)=O
n
O=C(O)c1cccc(C(=O)O)c1
n
OC[C@H]1O[C@@](CO)(O[C@H]2O[C@H](CO)[C@@H](O)[C@H](O)[C@H]2O)[C@@H](O)[C@@H]1O
n
CCn1nc(C)c2c1C(=O)NCC(c1ccc(O)cc1)=N2
n
CCCCCCCCCCCCCCCCOS(=O)(=O)O
n
CCCCC(CC)C(=O)OCCOCCOCCOC(=O)C(CC)CCCC (configuration not stated)
n

Challenge: Which outcome was entered for the compound "Nc1ccn([C@@H]2O[C@H](CO)[C@@H](O)[C@@H]2O)c(=O)n1" in this test?
Response given: n

Challenge: Which outcome was entered for the compound "Cc1nc(-c2ccccn2)ncc1C(=O)Nn1cc(C)c2cc(F)ccc21" in this test?
Response given: n

Challenge: Which outcome was entered for the compound "CCCc1ccccc1" in this test?
Response given: n

Challenge: Which outcome was entered for the compound "CC1(C)C(=O)N(Cl)C(=O)N1Cl" in this test?
Response given: n

Challenge: Which outcome was entered for the compound "COc1cc(C(C)C)c2c(c1)S(=O)(=O)N(COc1cc(=O)n3cccc(OCCN4CCCCC4)c3n1)C2=O" in this test?
Response given: n

Challenge: Which outcome was entered for the compound "c1ccc(C(O[C@@H]2CCCN(CCc3ccc4c(c3)OCO4)C2)c2ccccc2)cc1" in this test?
Response given: n

Challenge: Which outcome was entered for the compound "OC(CCl)CCl" in this test?
Response given: n

Challenge: Which outcome was entered for the compound "O=S(=O)(O)c1ccc(N=Nc2c(O)ccc3cc(S(=O)(=O)O)ccc23)cc1" in this test?
Response given: n

Challenge: Which outcome was entered for the compound "O=C(O)[C@H](O)[C@@H](O)C(=O)O" in this test?
Response given: n

Challenge: Which outcome was entered for the compound "CCOc1ccc2[nH]cc(C(=O)NCc3ccccc3)c(=O)c2n1" in this test?
Response given: n

Challenge: Which outcome was entered for the compound CC(C)CC(C)O (configuration not stated) in this test?
Response given: n

Challenge: Which outcome was entered for the compound "C=CN1CCCC1=O" in this test?
Response given: n

Challenge: Which outcome was entered for the compound "O=C(O)c1cccc(C[C@@H]2COc3ccc(OCc4nc5cc(F)ccc5s4)cc3[C@@H]2O)c1" in this test?
Response given: y

Challenge: Which outcome was entered for the compound "CCN(CC)C(=S)SSC(=S)N(CC)CC" in this test?
Response given: n

====

# Read-out: Thyroid Hormone Responsive (THRSP), THRSP (gene 7069)
# assay_protocol: LTEA_HepaRG_THRSP: Life Technologies and Expression Analysis (LTEA) Assay for Thyroid Hormone Responsive (THRSP) using HepaRG (AID 2283536)
# condition_context: mRNA level, 48 h; actives raise or lower the signal
# Experimental: LTEA_HepaRG is a cell based, multiplexed-readout assay that uses HepaRG, a human liver cell line, with measurements taken at 48 hours after chemical dosing on a 96-well plate.LTEA_HepaRG_THRSP is one of 102 assay component(s) measured in the LTEA HepaRG cell culture assay. It is a marker of NR mediated metabolism.Data from the assay component LTEA_HepaRG_THRSP was analyzed into 1 endpoint. […]
The source made the active and inactive calls. The calls were made as follows: active = hit-call score of the fitted dose curve at least 0.9, where 1 is the maximum; inactive = score below 0.9.
Answer with one of the outcomes y (active), n (inactive)

CCCCC(CC)C(=O)OCCOCCOCCOC(=O)C(CC)CCCC (configuration not stated)
n
O=c1[nH]cnc2c1ncn2[C@H]1CC[C@@H](CO)O1
n
CCCCCCCC/C=C\CCCCCCCC(=O)OC[C@@H](O)[C@H]1OC[C@H](O)[C@H]1O
n
CC(C)c1nnc2ccc(-c3ocnc3-c3cc(F)ccc3F)cn12
y
CCCCCCCCCC
n

Challenge: Which outcome was entered for the compound "c1ccc(C(O[C@@H]2CCCN(CCc3ccc4c(c3)OCO4)C2)c2ccccc2)cc1" in this test?
Response given: n

====

# Read-out: Cytochrome P450 7A1 (Homo sapiens)
# assay_protocol: LTEA_HepaRG_CYP7A1: Life Technologies and Expression Analysis (LTEA) Assay for Cytochrome P450 7A1 (CYP7A1) using HepaRG (AID 2283496)
# condition_context: mRNA level, 48 h; actives raise or lower the signal
Active and inactive are the calls of the source. The calls were made as follows: active = hit-call score of the fitted dose curve at least 0.9, where 1 is the maximum; inactive = score below 0.9.
outcome_measure: outcome

Sample answers from the record:
c1ccc2cc3ccccc3cc2c1
inactive
c1ccc2ncccc2c1
inactive
CC(=O)c1ccccc1
inactive
OCC(CO)(CO)CO
inactive

Challenge: I have this compound here, "CC1(C)C(=O)N(Cl)C(=O)N1Cl" , and I need its recorded outcome.
Response given: inactive

====

# Read-out: ABC Transporter (ABCC2), ABCC2 (gene 1244)
# assay_protocol: LTEA_HepaRG_ABCC2: Life Technologies and Expression Analysis (LTEA) Assay for ABC Transporter (ABCC2) using HepaRG (AID 2283464)
# condition_context: mRNA level, 48 h; actives raise or lower the signal
Calls of active or inactive are those of the source. How the source made its calls: active means hit-call score of the fitted dose curve at least 0.9, where 1 is the maximum; inactive means score below 0.9.
Answer with one of the outcomes YES (active), NO (inactive)

Example entries begin here.
CCCCCCOC(=O)CC(CC(=O)OCCCCCC)(OC(=O)CCC)C(=O)OCCCCCC
NO
OC(Cn1cncn1)(Cn1cncn1)c1ccc(F)cc1F
NO
OCc1ccccc1
NO
CC[C@H](C)C(=O)O[C@H]1C[C@H](O)C=C2C=C[C@H](C)[C@H](CC[C@@H](O)C[C@@H](O)CC(=O)O)[C@H]21
NO
CC(C)CCCCCCOC(=O)C1CCCCC1C(=O)OCCCCCCC(C)C (stereo unspecified)
NO

Challenge: Which outcome was entered for the compound CCCCCCCC1CCC(=O)O1 (stereo unspecified) in this test?
Response given: NO

Challenge: Which outcome was entered for the compound "c1ccc2cc3ccccc3cc2c1" in this test?
Response given: NO

Challenge: Which outcome was entered for the compound "COc1cc2c(c(OC)c1OC)-c1ccc(OC)c(=O)cc1[C@@H](NC(C)=O)CC2" in this test?
Response given: YES

Challenge: Which outcome was entered for the compound "C[C@@H](Oc1ccc(CNC(=O)c2cccnc2Oc2ccc3c(c2)OCO3)c(F)c1)C(=O)O" in this test?
Response given: NO

Challenge: Which outcome was entered for the compound "c1ccc(C(O[C@@H]2CCCN(CCc3ccc4c(c3)OCO4)C2)c2ccccc2)cc1" in this test?
Response given: YES

Challenge: Which outcome was entered for the compound "Cc1nccn1-c1ccc(Sc2cccc(C3(C(N)=O)CCOCC3)c2)cc1" in this test?
Response given: YES
